System: EKVX NSCLC
Experiment: NCI-60 one-dose screen, 48 h
Conditions: 10 µM unless noted
Procedure: Growth inhibition of the EKVX human Non-Small Cell Lung tumor cell line is measured as a screen for anti-cancer activity. Cells are grown in 96 well plates and exposed to the test compound for 48 hours. Compounds are tested at a single concentration, which is 10^-5 M for most compounds. The reported endpoint is percent growth (GI% or GIPRCNT), where numbers from 0 - 100% represent growth inhibition, and numbers from -100% - 0 represent cell death. […]
Compounds without any hit were thinned out: in the full panel of roughly 83,000, 20% have a hit. Calls of active or inactive are those of the source. Rule for the calls: active = growth percent below 10; inactive = the rest.
Outcome codes: 1 = active, -1 = inactive

• CC[C@@H]1NC(=O)[C@@H]2CCCCN2C(=O)[C@@H]2CCCN2C(=O)[C@@H](NC(=O)[C@H](Cc2cc(F)cc(F)c2)NC(=O)Nc2ccc(C3CC3)cc2F)[C@H](C)OC(=O)[C@@H]2C[C@@H](C)CN2C1=O = -1
• O=C(Oc1ccc(Cl)cc1[N+](=O)[O-])Oc1ccc(Cl)cc1[N+](=O)[O-] = -1
• Cc1cc(C)c(-c2cc(O)c(-c3c(C)cc(C)cc3C)cc2O)c(C)c1 = -1
• CCc1cccc(Cl)c1 = -1
• C=C(C)[C@@H]1CC[C@]2(C(=O)NCCCCCCN(CCCN)CCCN)CC[C@]3(C)[C@H](CC[C@@H]4[C@@]5(C)CC[C@H](OCCCN)C(C)(C)[C@@H]5CC[C@]43C)[C@@H]12 = -1
• CC1(C)CC[C@]2(C(=O)O)CC[C@]3(C)C(=CC[C@@H]4[C@@]5(C)C/C(=C/c6ccco6)C(=O)C(C)(C)[C@@H]5CC[C@]43C)[C@@H]2C1 = 1
• Clc1ccc(/C=N/Nc2nc3ccccc3s2)c(Cl)c1 = -1

----------
tested on: SF-268 CNS; test: NCI-60 one-dose screen, 48 h; conditions: 10 µM unless noted
This is part of a sample that, as a whole, favours compounds with a hit. Of some 83,000 tested, about 20% had one in any assay. Active and inactive are the calls of the source. How the source made its calls: active means growth percent below 10; inactive means the rest.
Labels: active, inactive

- CCN(CC)c1ccc2cc(NC(=O)OCCNC(=O)CCNC(=O)[C@H](CC(C)C)NC(=O)C(C)(C)NC(=O)C(C)(C)NC(=O)[C@H](CC(C)C)NC(=O)CCNC(=O)C(C)(C)NC(=O)[C@H](CC(C)C)NC(=O)CCNC(=O)[C@@](C)(CC)NC(=O)[C@H](C)NC(=O)CCNC(=O)C(C)(C)NC(=O)[C@H](C)NC(=O)[C@@H]3CCCN3C(=O)[C@@](C)(CC)NC(=O)[C@H](Cc3ccccc3)NC(=O)C3CCCN3C(=O)C(C)(C)NC(=O)C3CCCN3C(=O)C(C)(C)NC(C)=O)c(=O)oc2c1 (stereo not given in full): active
- CCOC(=O)c1c[nH]c2cc(OCC3CC3)c(OCC3CC3)cc2c1=O: inactive
- CC1(C)CC[C@]2(C(=O)O)CC[C@]3(C)[C@H](CC[C@@H]4[C@@]5(C)CCC(=O)C(C)(C)[C@@H]5CC[C@]43C)[C@H]2[C@H]1OC(=O)C(F)(F)F: active
- CCOC(=O)CC(c1ccccc1)C(C#N)c1ccccc1 (stereo not given): inactive
- OC(c1ccc(Cl)cc1)(c1ccc(Cl)cc1)C(O)(c1ccc(Cl)cc1)c1ccc(Cl)cc1: inactive
- CC1=CCc2ccccc21: inactive
- Oc1c(CNCCNCc2cc(Cl)cc(Cc3ccccc3)c2O)cc(Cl)cc1Cc1ccccc1: inactive
- O=c1cc(-c2ccccc2)oc2cc(OCc3cn(Cc4ccc(F)cc4)nn3)cc(O)c12: inactive
- CCn1cc(-c2cc(-c3ccc(Cl)cc3)nc(N)n2)c(-c2ccc(Br)cc2)n1: inactive
- Nc1nc(Cl)c2ncn(Cc3cc4c(cc3I)OCO4)c2n1: inactive
- CCOC(=O)c1nn(C2CCCCO2)c2ccc(NC(=O)CSc3nc4ccccc4c(=O)[nH]3)cc12 (stereo not given): inactive
- CCCCN(CCCC)CC(O)c1ccc(OCc2ccccc2)c2ccccc12 (stereo not given): inactive
- CCN(CCNc1ccc(C)c2sc3cc(Cl)ccc3c(=O)c12)CC(C)O (stereo not given): inactive
- CCOC(=O)c1cnc2ccc(Br)cc2c1Nc1cccc(S(N)(=O)=O)c1: inactive
- C=C(C)[C@@H]1CC[C@]2(C(N)=O)CC[C@]3(C)[C@H](CC[C@@H]4[C@@]5(C)C/C(=C/c6cccnc6)[C@H](O)C(C)(C)[C@@H]5CC[C@]43C)[C@@H]12: inactive
- CCCCCn1c(C)cc(/C=C\c2ccc3cc(C)ccc3[n+]2C)c1C: active
- Cn1cc(-c2noc(-c3cn(C)c4ncc(F)cc34)n2)c2ccccc21: inactive
- Cc1cc(C)c(S(=O)(=O)/N=c2/n(-c3ccccc3)nc3n2CCN3C2=NCCN2)c(C)c1: inactive
- NC1=NC(=O)NC1(c1ccccc1)c1ccccc1: inactive
- CC(C)=CCC[C@](C)(O)[C@H]1CC[C@]2(C)[C@@H]1CC[C@@H]1[C@@]3(C)CC[C@H](OC(=O)CCC(=O)O)C(C)(C)[C@@H]3CC[C@]12C: inactive
- CN(C)CCCNc1nc(-c2cccc(C(Cl)(Cl)Cl)c2)nc(C(Cl)(Cl)Cl)n1: inactive
- COc1cc2c(c(OC)c1OC)-c1cc(I)c(O)cc1[C@@H](NC(C)=O)CC2: active
- Nc1ccc(Cl)c([N+](=O)[O-])c1: inactive
- COc1ccc(C2NC(=O)C(C#N)c3c2sc2c(F)cccc32)cc1 (stereo not given): inactive
- CCN(CC)CCCOc1ccc2c(c1)O/C(=C\c1cccc(OC)c1)C2=O: inactive
- O=S(=O)(NCCCNc1nccc(-c2c(-c3cccc(F)c3)nc3occn23)n1)c1cccc2ccccc12: inactive
- Cc1ccc(C2=C/C(=C/c3ccc(Br)cc3)C(=O)N2CCc2ccc(S(N)(=O)=O)cc2)cc1: inactive
- COc1cc2c(c(Br)c1N)-c1cc(Br)c(N)cc1C2=O: inactive
- COc1ccc(-c2c(C)nn3c(NCCN4CCOCC4)cc(C)nc23)cc1OC: inactive
- CCCCCCCCCCCCCC[n+]1cccc(C(N)=O)c1: active
- Cc1cc2c(C(C)C)c(O)c(O)c(C=NCc3ccoc3)c2c(O)c1-c1c(C)cc2c(C(C)C)c(O)c(O)c(C=NCc3ccco3)c2c1O: inactive
- Cc1ccc(S(=O)(=O)n2cc(C(=O)C(=O)N3CCCCC3)c3ccccc32)cc1: inactive
- COc1cc(NN=C(c2ccc(O)cc2)c2ccc(O)cc2)c([N+](=O)[O-])cc1[N+](=O)[O-]: inactive
- Cc1ccccc1OC(=O)c1cccc(Cl)c1: inactive
- Cc1ccc(S(=O)(=O)Oc2ccc(Br)cc2Br)cc1: inactive
